experimental details: qHTS assay to identify small molecule inhibitors of chordoma cells - UCH-1 (AID 1259355); further: nearly all actives have a fitted effect of over 55% in size
cond: UCH-1 chordoma viability, CellTiter-Glo, 48 h, combination, with auranofin plus four topoisomerase inhibitors; series mostly up to 46.1 µM
Inconclusive results are not listed. The source made the active and inactive calls. The call rests on the fitted dose curve; in most records, active means well fitted cell-killing curve with a large enough effect; inconclusive means small, poorly fitted or top-dose-only effect, or effect the other way; inactive means no such curve, though single readings can be large or run the other way.
Thanks in advance; please answer with one of these: 1.0 = active, 0.0 = inactive

compound	class
CC(O)[C@@H]1NC(=O)[C@H](Cc2ccccc2)NC(=O)[C@H](C(C)O)NC(=O)[C@H](CCCCN)NC(=O)[C@H](Cc2c[nH]c3ccccc23)NC(=O)[C@H](Cc2ccccc2)NC(=O)[C@H](Cc2ccccc2)NC(=O)[C@H](CC(N)=O)NC(=O)[C@H](CCCCN)NC(=O)[C@@H](NC(=O)CNC(=O)[C@H](C)N)CSSC[C@@H](C(=O)O)NC(=O)[C@H](CO)NC1=O (stereo not given in full)	0.0
Cc1ccc(C(C)(C)c2ccc(C)cc2)cc1	0.0
CCCCC	0.0
O=C1NC(=O)[C@H]2[C@@H]1[C@@H]1C=C[C@H]2C1	0.0
CN(C)C=Nc1c(I)cc(I)c(CCC(=O)O)c1I	0.0
CN(C)CCC=C1c2ccccc2C(C)(C)c2ccccc21	0.0
CCCCC[C@H](O)/C=C/[C@H]1[C@H](O)CC(=O)[C@@H]1CCCCCCC(=O)O	0.0
c1ccc2ccccc2c1	0.0

What is the recorded call for this compound in the test? O=C1/C(=C\c2cccs2)CCC/C1=C\c1cccs1
0.0

What is the recorded call for this compound in the test? CCN1\C(=C/C=C/C=C/c2sc3ccccc3[n+]2CC)Sc2ccccc21
1.0
